Exercise: state measured log10 of IC50 for each of the compounds provided.
Biological target: Menin-MLL (Homo sapiens)
Construct: His-Menin (M1-L615 end); purchased BIORTUS BP9210
Sequence (O00255 1-615 isoform O00255-1): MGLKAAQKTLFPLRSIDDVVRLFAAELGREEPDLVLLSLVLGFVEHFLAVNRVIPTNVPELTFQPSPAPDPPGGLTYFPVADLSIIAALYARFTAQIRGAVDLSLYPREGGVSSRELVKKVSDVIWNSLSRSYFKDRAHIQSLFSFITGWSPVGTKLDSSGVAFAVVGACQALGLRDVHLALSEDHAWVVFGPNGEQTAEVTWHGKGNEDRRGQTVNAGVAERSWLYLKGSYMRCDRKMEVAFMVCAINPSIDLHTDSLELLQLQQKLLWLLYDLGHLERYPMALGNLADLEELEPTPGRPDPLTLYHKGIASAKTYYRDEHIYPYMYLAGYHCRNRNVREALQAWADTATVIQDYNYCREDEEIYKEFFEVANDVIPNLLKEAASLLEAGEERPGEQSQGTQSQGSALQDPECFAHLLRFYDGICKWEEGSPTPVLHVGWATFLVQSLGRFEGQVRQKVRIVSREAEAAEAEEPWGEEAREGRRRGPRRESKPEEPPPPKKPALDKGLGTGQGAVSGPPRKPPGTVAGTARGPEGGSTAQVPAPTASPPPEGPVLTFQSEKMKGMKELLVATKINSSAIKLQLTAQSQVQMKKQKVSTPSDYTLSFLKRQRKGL
Assay: Inhibitory activity against Menin-MLL binding (fluorescence polarization)
Settings: fluorescence polarization; 150 nM His-Menin, 15 nM FITC-MLL; 25°C for 60 min; read-out: Menin-MLL IC50
Description: • His-Menin (M1-L615 end), purchased from BIORTUS, Catalog Number: BP9210; and • FITC-MLL4-43, purchased from GenScript, Catalog Number: C491HFF190-3/PE1324. In a 10 µL reaction solution (20 mM HEPES, pH 7.5, 50 mM NaCl, 1 mM DTT, 0.01% BSA) containing any compound from the examples, 150 nM His-Menin was added to a 384-well plate (Corning, Model: 4514). […] Changes in fluorescence polarization were measured using a plate reader (PerkinElmer, Envision 2104). […]
Recorded IC50 (log10, nM)

Please report the recorded log10 of IC50 for CCN(C(=O)c1cc(F)ccc1-c1cc(C2CN([C@H](CCCN3CCC[C@H](O)C3)C(C)C)C2)cn2c(C)ncc12)C(C)C [Example 327] .
0.26

log10 of IC50 for CC(=O)N1C[C@H]2C[C@@H]1CN2CCC[C@H](C(C)C)N1CC(c2cc(-c3ccc(F)cc3C(=O)N3CCOC[C@H]3C)c3c(F)nc(C)n3c2)C1 [Example 332] ?
0.97

Quick check: log10 of IC50 of Cc1nc(F)c2c(-c3ccc(F)cc3C(=O)N3CCOC[C@H]3C)cc(C3CN([C@H](CCCN4CCN(S(C)(=O)=O)CC4)C(C)C)C3)cn12 [Example 365] ?
0.93

Data request, read-out log10 of IC50, for CCN(C(=O)c1cc(F)ccc1-c1cc(C2CN(C(CC3COCCO3)C(C)C)C2)cn2c(C)ncc12)C(C)C (stereo not drawn) [Example 445]
1.30

Data request, read-out log10 of IC50, for Cc1ncc2c(-c3ccc(F)cc3C(=O)N3CCOC[C@H]3C)cc(C3CN(CC4CCOCC4)C3)cn12 [Example 243]
1.50

Look up log10 of IC50: CCN(C(=O)c1cc(F)ccc1-c1cc(C2CN([C@H](C)C3CCN(C(C)=O)CC3)C2)cn2c(C)nc(F)c12)C(C)C [Example 288-1]
1.04
